Hello, the source for this data is patent US10004701B2, in case you need it.

Test system: E. coli
Test: AK assay 384-well format, Prestwick library screening
Type: cell-based, Escherichia coli
Conditions: Escherichia coli, 3 h; planktonic E. coli; 50 μM final drug concentration; cutoff for positive-scoring molecules 3-fold increase; read-out: AK-based Prestwick Library Screening Results, E. coli (increase in extracellular AK activity)
Counter-ions that a name gives are not always drawn.
Measured fold induction at 50 µM values are reported for all entries that follow.
Keep it simple and answer with nothing but the number.

stdin: Answer with the recorded fold induction at 50 µM for the compound listed here: C[C@@H]1C[C@H]2[C@@H]3CCC4=CC(=O)C=C[C@]4(C)[C@@]3(Cl)[C@@H](O)C[C@]2(C)[C@@]1(OC(=O)c1ccco1)C(=O)CCl [Mometasone furoate]
stdout: 0.9

stdin: Answer with the recorded fold induction at 50 µM for the compound listed here: COc1ccc(Cc2nccc3cc(OC)c(OC)cc23)cc1OC [Papaverine hydrochloride]
stdout: 0.9
